B1: GAGE1 (parent)
chain: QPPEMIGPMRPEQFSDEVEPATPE

# Variants of: B1
# protocol_summary: protein stability index of a GFP-peptide fusion (GPS, HEK-293T) (PSI 1-6); higher = more stable;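 also: lentivirally expressed fusions sorted by FACS into six bins by GFP to DsRed ratio, PSI derived from sequencing read proportions per bin multiplied by bin number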
# condition: c terminus: a fixed tail appended
Here the recorded protein stability index is given for each entry.
property_measured: protein stability index

INSERT INTO measurements (seq_text, quantitative_result) VALUES
  ('QPPEMIGPMRPEQFSDEVEPVTPE [A21V]', 5.34),
  ('QPPEMIGPMRPEQKSDEVEPATPE [F14K]', 4.13),
  ('QPPEMIGPMRPEQFIDEVEPATPE [S15I]', 5.08),
  ('QPLEMIGPMRPEQFSDEVEPATPE [P3L]', 4.76),
  ('QPPEMIGPMEPEQFSDEVEPATPE [R10E]', 5),
  ('QHPEMIGPMRPEQFSDEVEPATPE [P2H]', 5.25),
  ('QPPEMIGDMRPEQFSDEVEPATPE [P8D]', 5.1),
  ('QPPWMIGPMRPEQFSDEVEPATPE [E4W]', 5.61),
  ('QPPEMIGPMRHEQFSDEVEPATPE [P11H]', 5.82),
  ('QPPEMISPMRPEQFSDEVEPATPE [G7S]', 5.68),
  ('QPPEMIGPMRPEQFSDEVEPTTPE [A21T]', 4.83),
  ('QPPEMIGPMRPEQFSDEVEPACPE [T22C]', 4.97),
  ('QPPEMIGPQRPEQFSDEVEPATPE [M9Q]', 5.49),
  ('QKPEMIGPMRPEQFSDEVEPATPE [P2K]', 4.99),
  ('QPPEMIGPMRPEQFSDEVWPATPE [E19W]', 4.75),
  ('QPPEMIGPMRPEQFSDEVERATPE [P20R]', 5),
  ('QPPEMKGPMRPEQFSDEVEPATPE [I6K]', 5.78),
  ('QPPEMIGPMRPEQFSDEVEHATPE [P20H]', 5.46),
  ('QPPFMIGPMRPEQFSDEVEPATPE [E4F]', 5.62),
  ('QPPEMIGPMRPEQFSTEVEPATPE [D16T]', 5.46),
  ('QPPEMIGPKRPEQFSDEVEPATPE [M9K]', 5.81),
  ('QPPEMIGPMRPEQFSDPVEPATPE [E17P]', 4.73);
